// provenance: patent US6943194B1

# Tested on: NCI 60 Cell-Line Human Tumor Screen
# experiment description: NCI 60 cell-line human tumor screen
# Assay type: cell-based
# assay conditions: Homo sapiens; mean over NCI 60 cell-line panel, tested in triplicate; read-out: Mean Panel GI50 (±S.D)
attribute measured: GI50 (µM)
Give the number; µM is assumed, so skip it.

Sample records with GI50:
smiles	GI50, µM
COc1cc(C(=O)c2cc(C)cc(C)c2)cc(OC)c1OC	3.48
COc1cc(C(=O)c2cc(Cl)cc(Cl)c2)cc(OC)c1OC	5.12
COc1cc(C(=O)c2ccc3c(c2)OCO3)cc(OC)c1OC	2.7

In: Give GI50 for the following compound: COc1ccc(C(=O)c2cc(OC)c(OC)c(OC)c2)cc1OC
Out: 5.11
